Consider the following pIC50 values measured on hBCAT1 (Homo sapiens, UniProt P54687).
Sequence (P54687 whole entry): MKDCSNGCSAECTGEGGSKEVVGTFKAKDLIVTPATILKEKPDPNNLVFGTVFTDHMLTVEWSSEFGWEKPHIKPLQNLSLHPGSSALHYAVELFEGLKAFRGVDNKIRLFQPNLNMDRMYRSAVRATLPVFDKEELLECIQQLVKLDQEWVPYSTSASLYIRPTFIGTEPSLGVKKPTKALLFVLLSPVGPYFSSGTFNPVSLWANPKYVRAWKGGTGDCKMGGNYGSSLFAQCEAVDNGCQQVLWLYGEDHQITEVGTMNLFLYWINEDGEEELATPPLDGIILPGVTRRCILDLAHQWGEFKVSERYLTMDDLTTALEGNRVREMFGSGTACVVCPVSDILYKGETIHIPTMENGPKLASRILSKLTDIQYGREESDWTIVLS
pIC50: −log10 of the molar value.

[
  {
    "compound": "O=C(N[C@H]1CCC[C@@H](n2c(-c3ncccc3F)nc3cnc(-c4cc[nH]n4)cc32)C1)c1ncc(C(F)F)s1 [Example 55]",
    "pIC50": "> 6.30"
  },
  {
    "compound": "O=C(N[C@H]1CCC[C@@H](n2c(Oc3ccccc3)nc3cnc(-n4nccn4)cc32)C1)c1ccc(Br)s1 [Example 63]",
    "pIC50": "< 5.30"
  },
  {
    "compound": "CC(=O)N1CC(NC(=O)c2ncc(C(F)F)s2)CC(n2c(-c3ccccn3)nc3cnc(-n4nccn4)cc32)C1 (stereo not shown) [Example 121]",
    "pIC50": "6.00 to 6.30"
  },
  {
    "compound": "O=C(N[C@@H]1C[C@@H](O)C[C@H](n2c(-c3ccccc3F)nc3cnc(-n4nccn4)cc32)C1)c1ncc(Cl)s1 (single isomer, unassigned) [Example 111]",
    "pIC50": "> 6.30"
  },
  {
    "compound": "O=C(N[C@H]1C[C@H](O)C[C@@H](n2c(-c3ccccc3F)nc3cnccc32)C1)c1ncc(Cl)s1 [Example 272]",
    "pIC50": "6.00 to 6.30"
  },
  {
    "compound": "CC(C)Cc1nc2cnc(-c3cccc(C#N)n3)cc2n1[C@@H]1CCC[C@H](NC(=O)c2ncc(Cl)s2)[C@H]1O [Example 392]",
    "pIC50": "5.30 to 6.00"
  },
  {
    "compound": "O=C(N[C@H]1CCC[C@@H](n2c(-c3ccccn3)nc3cnc(-n4cccn4)cc32)C1)c1ccc(Br)s1 [Example 30]",
    "pIC50": "5.30 to 6.00"
  }
]
